Parameter zone score, S. aureus ATCC 29213: see the listing below.
Test system: S. aureus (ATCC 29213)
Assay: Zone of inhibition screen, 96 well agar array format
Format: cell-based
Set-up: scale not given here
Conditions: zone of inhibition relative to 1 mg/ml p-chlorobiphenylvancomycin

[
  {
    "compound": "CC1OC(OC2C(Oc3c4cc5cc3Oc3ccc(cc3Cl)C(O)C3NC(=O)C(NC(=O)C5NC(=O)C(CC(N)=O)NC(=O)C(NC(=O)c5cc(C(F)(F)F)cc(C(F)(F)F)c5)C(O)c5ccc(c(Cl)c5)O4)c4ccc(O)c(c4)-c4c(O)cc(O)cc4C(C(=O)O)NC3=O)OC(CO)C(O)C2O)CC(C)(NCc2ccc(-c3ccc(Cl)cc3)cc2)C1O (stereo not drawn) [Compound 254]",
    "zone score, S. aureus ATCC 29213": 2
  },
  {
    "compound": "CC1OC(OC2C(Oc3c4cc5cc3Oc3ccc(cc3Cl)C(O)C3NC(=O)C(NC(=O)C5NC(=O)C(CC(N)=O)NC(=O)C(NC(=O)C=Cc5ccco5)C(O)c5ccc(c(Cl)c5)O4)c4ccc(O)c(c4)-c4c(O)cc(O)cc4C(C(=O)O)NC3=O)OC(CO)C(O)C2O)CC(C)(NCc2ccc(-c3ccc(Cl)cc3)cc2)C1O (stereo not drawn) [Compound 244]",
    "zone score, S. aureus ATCC 29213": 2
  },
  {
    "compound": "COC(=O)C=CC(=O)NC1C(=O)NC(CC(N)=O)C(=O)NC2C(=O)NC3C(=O)NC(C(=O)NC(C(=O)O)c4cc(O)cc(O)c4-c4cc3ccc4O)C(O)c3ccc(c(Cl)c3)Oc3cc2cc(c3OC2OC(CO)C(O)C(O)C2OC2CC(C)(NCc3ccc(-c4ccc(Cl)cc4)cc3)C(O)C(C)O2)Oc2ccc(cc2Cl)C1O (stereo not drawn) [Compound 297]",
    "zone score, S. aureus ATCC 29213": 2
  }
]

----------
Parameter: zone score, E. faecalis CL 4877. Scope: all listed entries.
System: E. faecalis (CL 4877)
Assay: Zone of inhibition screen, 96 well agar array format
Assay type: cell-based
Set-up: scale not given here
Details: zone of inhibition relative to 1 mg/ml stock solution of p-chlorobiphenylvancomycin

[
  {
    "compound": "COCCOCCOCC(=O)NC1C(=O)NC(CC(N)=O)C(=O)NC2C(=O)NC3C(=O)NC(C(=O)NC(C(=O)O)c4cc(O)cc(O)c4-c4cc3ccc4O)C(O)c3ccc(c(Cl)c3)Oc3cc2cc(c3OC2OC(CO)C(O)C(O)C2OC2CC(C)(NCc3ccc(-c4ccc(Cl)cc4)cc3)C(O)C(C)O2)Oc2ccc(cc2Cl)C1O (stereo not drawn)",
    "assay-system": "E. faecalis (CL 4877)",
    "zone score, E. faecalis CL 4877": 2
  },
  {
    "compound": "CC1OC(OC2C(Oc3c4cc5cc3Oc3ccc(cc3Cl)C(O)C3NC(=O)C(NC(=O)C5NC(=O)C(CC(N)=O)NC(=O)C(NC(=O)C(CCC(N)=O)NC(=O)OC(C)(C)C)C(O)c5ccc(c(Cl)c5)O4)c4ccc(O)c(c4)-c4c(O)cc(O)cc4C(C(=O)O)NC3=O)OC(CO)C(O)C2O)CC(C)(NCc2ccc(-c3ccc(Cl)cc3)cc2)C1O (stereo not drawn)",
    "assay-system": "E. faecalis (CL 4877)",
    "zone score, E. faecalis CL 4877": 2
  },
  {
    "compound": "CC1OC(OC2C(Oc3c4cc5cc3Oc3ccc(cc3Cl)C(O)C3NC(=O)C(NC(=O)C5NC(=O)C(CC(N)=O)NC(=O)C(NC(=O)C(N)CSCCO)C(O)c5ccc(c(Cl)c5)O4)c4ccc(O)c(c4)-c4c(O)cc(O)cc4C(C(=O)O)NC3=O)OC(CO)C(O)C2O)CC(C)(NCc2ccc(-c3ccc(Cl)cc3)cc2)C1O (stereo not drawn)",
    "assay-system": "E. faecalis (CL 4877)",
    "zone score, E. faecalis CL 4877": 2
  }
]
